Assay: HBEC Cell Viability Secondary Assay for qHTS Assay for Epigenetic Modulators
Conditions: HBEC normal bronchial cells viability, ATP luminescence, 72 h; series mostly up to 46.1 µM
Results filed as inconclusive are left out. The source made the active and inactive calls. The call rests on the fitted dose curve; in most records, active means well fitted cell-killing curve with a large enough effect; inconclusive means small, poorly fitted or top-dose-only effect; inactive means flat fitted curve, though single readings scatter.
parameterMeasured: Potency

Look over these answered cases.
[[record]]
compound = "O=[N+]([O-])/C(C=Nc1ccccc1O)=C\\Nc1ccccc1O"
parametermeasured = "Potency"
measured = "28.1 µM (active)"

[[record]]
compound = "S=C(Nc1ccccc1)c1ccccn1"
parametermeasured = "Potency"
measured = "inactive"

[[record]]
compound = "O=C(CSc1cccc[n+]1[O-])c1ccccc1Br"
parametermeasured = "Potency"
measured = "inactive"

[[record]]
compound = "COc1ccc2c(C)cc(SCC(=O)N(C)C3CCS(=O)(=O)C3)nc2c1 (centres undefined)"
parametermeasured = "Potency"
measured = "inactive"


Please state Potency for every compound in the list that follows.
1. C/C=C/c1ccc(OCC(=O)OCC(=O)NC2CC2)c(OC)c1
2. COc1ccccc1OCC(=O)N/N=C/C=C/c1ccc([N+](=O)[O-])o1

Key:
1: inactive; 2: 9.96 µM (active)

Please state Potency for every compound in the list that follows.
1. Cc1ccc(/C=[N+](\[O-])c2ccc(N(C)C)cc2)c2nsnc12
2. O=C1C=C(Nc2ccc(Cl)cc2)C(=O)N1c1ccc(Cl)cc1

Key:
9.96 µM (active)
inactive
